- experiment: Noncompetitive Inhibitory activity against Inosine-5'-monophosphate dehydrogenase using IMP as viable substrate
pKi: −log10 of the molar value.
Reported pKi values for a set of molecules

{"columns": ["molecule", "pKi"],
 "data": [
  ["NC(=O)c1c[se]c([C@@H]2O[C@H](COP(=O)(O)O)[C@@H](O)[C@H]2O)n1", 3.77],
  ["NC(=O)c1csc([C@@H]2O[C@H](COP(=O)(O)O)[C@@H](O)[C@H]2O)n1", 3.58],
  ["NC(=O)c1ncn(C2O[C@H](COP(=O)(O)OP(=O)(O)OC[C@H]3OC(n4cnc5c(N)ncnc54)[C@H](O)[C@@H]3O)[C@H](O)[C@@H]2O)n1 (stereo partly drawn)", 3.83]
]}
